target of assay: JNK1α1 (Homo sapiens, UniProt P45983)
Construct: catalytic domain containing amino acids 1-364 and N-terminal hexahistidine tag; hexahistidine (His6) (N); made in house; host or cells: E. coli BL21 (DE3)
Sequence (P45983 1-364): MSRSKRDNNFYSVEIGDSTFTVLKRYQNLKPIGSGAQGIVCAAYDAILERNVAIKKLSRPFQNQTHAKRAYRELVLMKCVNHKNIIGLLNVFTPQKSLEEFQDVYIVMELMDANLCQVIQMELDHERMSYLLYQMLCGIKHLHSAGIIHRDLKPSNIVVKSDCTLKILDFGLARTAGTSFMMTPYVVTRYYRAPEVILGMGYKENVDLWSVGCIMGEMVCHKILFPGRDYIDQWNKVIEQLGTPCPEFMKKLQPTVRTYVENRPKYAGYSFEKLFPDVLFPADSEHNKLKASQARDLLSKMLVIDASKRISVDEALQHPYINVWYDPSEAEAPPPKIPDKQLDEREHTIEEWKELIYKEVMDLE
test method notes: Coupled spectrophotometric (PK/LDH) JNK1α1 assay: % inhibition and Ki determination
Type: biochemical
condition summary: @10 uM; read-out: % Inhibition JNK-1
Quick list: inhibition at 10 µM per entry.

# molecule, inhibition at 10 µM
measured = [
    ("CC(C)(C)N1CC(CNC(=O)c2cccc3cnc(N[C@H]4CC[C@H](O)CC4)nc23)CC1=O (stereo partly shown)", "54%"),
    ("O=C(NCc1noc(-c2ccccc2)n1)c1cccc2cnc(N[C@H]3CC[C@H](O)CC3)nc12", "60%"),
    ("c1cc(CNc2cc3cc(-c4cn[nH]c4)ccc3cn2)[nH]n1", "17%"),
    ("O=C(Nc1nccc2cccnc12)c1cccc2cnc(N[C@H]3CC[C@H](O)CC3)nc12", "52%"),
]

###

Reported Ki for target or system JNK1α1 (Homo sapiens), by entry.

# compound, result unit, Ki
measured = [
    ("CC(C)N[C@H]1CC[C@H](Nc2ncc3cccc(OC4CCOCC4)c3n2)CC1 [Example 191]", "nM", 698),
    ("NCCOc1ccc(-c2cccc3cnc(N[C@H]4CC[C@H](O)CC4)nc23)cc1 [Example 202]", "nM", 77),
    ("COc1cccc2cnc(N[C@H]3CC[C@H](O)CC3)nc12 [Example 150]", "nM", 359),
    ("Cc1cccc(NC(=O)c2ccc3cnc(N[C@H]4CC[C@H](O)CC4)nc3c2)n1 [Example 369]", "nM", 2310),
    ("O[C@H]1CC[C@H](Nc2ncc3ccccc3n2)CC1 [Example 151]", "nM", 432),
]

###

Quick list: inhibition at 1 µM per entry.
target of assay: JNK1α1 (Homo sapiens)
Construct: catalytic domain containing amino acids 1-364 and N-terminal hexahistidine tag; hexahistidine (His6) (N); made in house; host or cells: E. coli BL21 (DE3)
test method notes: Coupled spectrophotometric (PK/LDH) JNK1α1 assay: % inhibition and Ki determination
Type: biochemical
condition summary: @1 uM; read-out: % Inhibition JNK-1
test readout: inhibition at 1 µM (%)

# molecule, test readout, result unit, numeric readout
data = [
    ("CC(C)[C@@H](CO)NC(=O)c1ccc2cnc(NC3CCC3)nc2c1", "inhibition at 1 µM", "%", 22),
    ("O=C(NCc1ccncc1)c1cccc2cnc(N[C@H]3CC[C@H](O)CC3)nc12", "inhibition at 1 µM", "%", 34),
    ("O[C@H]1CC[C@H](Nc2ncc3cccc(OCCN4CCOCC4)c3n2)CC1", "inhibition at 1 µM", "%", 24),
    ("CC(CN1CCOCC1)Oc1ccc2cnc(N[C@H]3CC[C@H](O)CC3)nc2c1 (stereo partly shown)", "inhibition at 1 µM", "%", 25),
    ("CC(Cn1cccn1)NC(=O)c1cccc2cnc(N[C@H]3CC[C@H](O)CC3)nc12 (stereo partly shown)", "inhibition at 1 µM", "%", 13),
    ("CO[C@H]1CCCC[C@@H]1Oc1ccc2cnc(N[C@H]3CC[C@H](O)CC3)nc2c1", "inhibition at 1 µM", "%", 37),
    ("O=C(NCc1ccc[nH]c1=O)c1cccc2cnc(N[C@H]3CC[C@H](O)CC3)nc12", "inhibition at 1 µM", "%", 14),
]

###

target of assay: JNK1α1 (Homo sapiens)
Construct: catalytic domain containing amino acids 1-364 and N-terminal hexahistidine tag; hexahistidine (His6) (N); made in house; host or cells: E. coli BL21 (DE3)
test method notes: Coupled spectrophotometric (PK/LDH) JNK1α1 assay: % inhibition and Ki determination
Format: biochemical
condition summary: @10 uM; read-out: % Inhibition JNK-1

# molecule, target of assay, inhibition at 10 µM [%]
rows = [
    ("CCN(CC)CCOc1cccc2cnc(N[C@H]3CC[C@H](O)CC3)nc12 [Example 261]", "JNK1α1 (Homo sapiens)", 42),
    ("CN1CCN(C)C(COc2cccc3cnc(N[C@H]4CC[C@H](O)CC4)nc23)C1 (some centres unmarked) [Example 264]", "JNK1α1 (Homo sapiens)", 46),
    ("CC(C)(C)C(=O)N1CCC(NC(=O)c2cccc3cnc(N[C@H]4CC[C@H](O)CC4)nc23)C1 (some centres unmarked) [Example 504]", "JNK1α1 (Homo sapiens)", 40),
    ("CS(=O)(=O)Nc1ccc(CNc2cc3cc(-c4cn[nH]c4)ccc3cn2)cc1 [Example 237]", "JNK1α1 (Homo sapiens)", 41),
    ("O=C(NCCN1CCCCC1=O)c1cccc2cnc(N[C@H]3CC[C@H](O)CC3)nc12 [Example 486]", "JNK1α1 (Homo sapiens)", 50),
]
